Kindly supply the reported melting point values for the records listed here.

Example results:
Provide only the value of recorded melting point for Cc1cc(NC(=O)NC2=C(c3ccccc3)c3ccccc3CS2)cc(C)c1O
227 to 228 °C

Provide only the value of recorded melting point for CC1(C)C=Cc2cc(C(=O)NCCc3ccc(OCc4ccccc4)cc3)ccc2O1
133 to 135 °C

Provide only the value of recorded melting point for NS(=O)(=O)c1ccc(-c2nn3c(-c4ccc(F)cc4)coc3c2-c2ccc(F)cc2)cc1
235 to 237 °C

Provide only the value of recorded melting point for CCOC(=O)C(Cc1ccccc1)(C(=O)Nc1ccc(Cl)cc1)c1ccccc1 (centres undefined)
83 to 85 °C

I need melting point for every entry listed below, if you could help.
1. CCN(CC)CCOC1c2ccccc2C(=O)N1c1ccccc1 (centres undefined)
2. CC(=O)N[C@H]1CCN(C(=O)c2ccc(-c3[nH]nc4c3C(=O)c3c(NC(=O)NN5CCOCC5)cccc3-4)s2)C1
3. CCCCN1CCC(n2nc(-c3cc(Cl)cc4c3OCC4)oc2=O)CC1
4. Cc1csc(-c2nc3c4ccccc4ccn3c2N)c1
5. O=C(c1cccc(C(F)(F)F)c1)c1cc2cccc(Br)c2o1
6. NC(=O)C1(c2ccc(Br)nc2)CCCC1
7. CCOc1cc(-n2c(=O)cc(C(F)(F)F)n(C)c2=O)c(F)cc1Cl

["146 to 147 °C", "264 to 265 °C", "134 °C", "152 to 155 °C", "75 to 78 °C", "211 to 212 °C", "118 to 121 °C"]

---

Assay Metric: melting point

Example results:
Provide only the value of recorded melting point for COC1O[C@H](CC#N)[C@H](OCc2ccccc2)[C@H]1O (stereo not given in full)
59 to 60 °C

Provide only the value of recorded melting point for Cc1nc(-c2ccccc2)nc(-c2cccc([N+](=O)[O-])c2)c1C(=O)NCCCl
199 to 200 °C

Provide only the value of recorded melting point for COc1ccc(N2CCN(c3c(C)c(C)c4c(c3C)C(O)(c3ccc(C(F)(F)F)cc3)C(C)(C)O4)CC2)cc1 (stereo not given)
181 to 183 °C

Provide only the value of recorded melting point for COC(=O)C1CCc2ccc(O)cc2C1 (stereo not given)
83 to 84 °C

Provide only the value of recorded melting point for CSc1nc2c(NCc3ccccc3)nc(NCCCO)nc2n1C(C)C
64 to 67 °C

Provide only the value of recorded melting point for N#Cc1cc(F)c(-n2nc3ccc(Cl)cn3c2=O)cc1F
> 230 °C

Provide only the value of recorded melting point for O=c1cc(-c2cc3ccccc3[nH]2)oc2ccccc12
157 to 158 °C

Provide only the value of recorded melting point for O=C(Nc1ccc(OCCCN2CCCC2=O)c2ccccc12)c1cc(F)cc(N2CCCCC2)c1
88 to 89 °C

Provide only the value of recorded melting point for CN1CC(CCN2CCN(c3cccc(F)c3)CC2)OC1=O (stereo not given)
92 to 93 °C

Provide only the value of recorded melting point for O=C1CCC(=O)N1Cc1nc2sc3c(c2c(-c2ccc(Cl)cc2)c1Cl)CCN(Cc1ccccc1)C3
254 to 255 °C

I need melting point for every entry listed below, if you could help.
1. O=[N+]([O-])c1ccc(S(=O)(=O)NCC2CCN(C[C@H]3COc4ccc(Cl)cc4O3)CC2)cc1
2. COC(=O)C1=C(C)NC(C)=C(C(=O)OC)C1c1cc([N+](=O)[O-])ccc1OCCCCNCC(O)COc1ccccc1 (stereo not given)

147 to 148 °C
131 to 133 °C

I need melting point for every entry listed below, if you could help.
1. O=C1CCC(N2C=Nc3ccccc3CC2)C(=O)N1 (stereo not given)
2. CC(C)Cc1cc(S(=O)(=O)Cl)c(C(C)C)cc1Cl
3. O=C(/C=C/c1ccc2c(c1)OCCO2)CC(=O)/C=C/c1ccc2c(c1)OCCO2
4. O=C(O)Cc1cc(Cl)c2c(c1)CCC(c1ccccc1)N2 (stereo not given)

1: 84 to 91 °C; 2: 90 to 94 °C; 3: 184 to 187 °C; 4: 126 to 127 °C

I need melting point for every entry listed below, if you could help.
1. O=Cc1cc(Oc2ccccc2)ccc1O
2. COc1ccc(C(C)=O)cc1C12CC3CC(CC(C3)C1)C2
3. Cc1ccc2c(c1)c(-c1ccc(F)cc1)c(C)n2C1CCN(CCN2CCNC2=O)CC1
4. O=S(=O)(F)Cc1ccc(F)c(Oc2ccccc2)c1
5. O=C(C=C1CCN(Cc2ccc(F)cc2)CC1)NCc1ccc(F)c(F)c1
6. CCOC(=O)Nc1cc(OCC)c(Br)cc1F
7. O=C1c2c(O)cccc2C(SCCS)c2cccc(O)c21

["54 to 55 °C", "138 to 140 °C", "188 to 190 °C", "59.5 to 61.5 °C", "83 to 85 °C", "92.5 to 95 °C", "133 to 134 °C"]

I need melting point for every entry listed below, if you could help.
1. CC(c1ncnc(Cl)c1F)C(O)(Cn1cncn1)c1ccc(F)cc1F (stereo not given)
2. Cc1cccc2c(=O)n(C)c(-c3ccc(OC4CCN(C5CCC5)CC4)cc3)nc12
3. CCc1cc(NC(C)=O)c(C=O)c(CC)n1

92 °C
152 to 154 °C
91 to 92 °C

I need melting point for every entry listed below, if you could help.
1. NC(=O)CC1Nc2cccc3cccc(c23)S1(=O)=O (stereo not given)
2. Cc1cc2c(cc1O)C(C)(C)CC1(CC(C)(C)c3cc(OCC(N)=O)c(C)cc3O1)O2 (stereo not given)
3. CN(C)C(=N)c1nn(-c2c(Cl)cc(C(F)(F)F)cc2Cl)c(N)c1S(=O)C(F)(F)F (stereo not given)

1. 195 to 196 °C
2. 220 to 221 °C
3. 123 to 126 °C

I need melting point for every entry listed below, if you could help.
1. CC1CCN(C(=O)C(Cc2cc3c(N)nccc3s2)NS(=O)(=O)c2ccc(OC3CCOCC3)cc2)CC1 (stereo not given)
2. CCn1ncc(C(=O)c2ccc(S(C)(=O)=O)c(C(=O)OC)c2C)c1O
3. COc1cccc(-c2ccc3c(c2)C2(CCCCC2)C(=NOCc2ccccc2)N3)c1
4. CCN(CC)C(=O)OC12C(=O)c3ccccc3C1(O)Oc1cc(C(C)C)ccc12 (stereo not given)
5. CCOC(=O)C(=CNc1ccc2nc(C)n(C)c2n1)C(=O)OCC
6. Cn1c(Cl)c(C=O)c2ccc(Cl)cc21
7. Cc1sc2ccc(Cl)cc2c1C1=NCCO1

["127 to 129 °C", "150 to 152 °C", "101 to 104 °C", "101 to 104 °C", "128 to 130 °C", "166 to 168 °C", "100 to 102 °C"]

I need melting point for every entry listed below, if you could help.
1. O=C(NC1CCC(c2cc(Nc3cccc(C(F)(F)F)c3)n[nH]2)C1)C1CCCCC1 (stereo not given)
2. CCOC(=O)C(Cc1cc(OC)ccc1OC)C(C)=O (stereo not given)
3. Fc1cccc(F)c1-c1ncc(-c2ccc(-c3ccc(OC(F)(F)F)cc3)cc2)cn1
4. COc1cccc(COC(=O)c2ncn3c2[C@@H]2CCCN2C(=O)c2c(Cl)cccc2-3)c1

1. 163 °C
2. 68 to 69 °C
3. 215 to 216 °C
4. 131 to 133 °C

---

Kindly supply the reported melting point values for the records listed here.

Provide only the value of recorded melting point for CC1=CCC(=Nc2cc([N+](=O)[O-])ccc2O)S1
202 to 204 °C

I need melting point for every entry listed below, if you could help.
1. CC1(C)CCC(C)(C)c2cc(-c3ccc4cc(O)ccc4c3)ccc21
2. COc1ccc(N2CCN(c3c(C)c(C)c4c(c3C)C(O)(c3ccc5ccccc5c3)C(C)(C)O4)CC2)cc1 (centres undefined)

104 °C
189 to 190 °C

I need melting point for every entry listed below, if you could help.
1. CCOC(=O)c1cnc2c(C=O)cc(CN3CCOCC3)cc2c1O
2. COc1ccc(COC(=O)c2ccccc2)cc1OCc1ccccc1
3. O=C(NCc1ccccc1)N1CC(Oc2cccc(C(F)(F)F)c2)C1
4. CN1CCN(c2cc(C(=O)Nc3ccc4c(c3)-c3c(c(C(N)=O)nn3-c3ccc5c(c3)OCO5)CC4)c(Cl)cn2)CC1

["202 to 204 °C", "75.7 °C", "174 to 175 °C", "305 to 307 °C"]

I need melting point for every entry listed below, if you could help.
1. Cc1cc2c(c(C(C)(C)C)c1)OC(=O)C2=C1C(=O)Oc2c1cc(C)cc2C(C)(C)C
2. CCS(=O)c1ccc(-c2coc3ccc(-c4nnc(C)o4)nc23)cc1 (centres undefined)

["253 to 255 °C", "207 to 208 °C"]

---

Kindly supply the reported melting point values for the records listed here.

Example results:
Provide only the value of recorded melting point for COC(=O)C(Oc1ccc(Cl)cc1)c1ccc(S(=O)c2ccc(Cl)cc2)cc1 (stereo not given)
134 to 144 °C

Provide only the value of recorded melting point for CSC(=S)NCCNC(C)=O
139 to 140 °C

Provide only the value of recorded melting point for COc1cc2c(c(OC)c1OC)OCC2=O
81 to 83 °C

I need melting point for every entry listed below, if you could help.
1. COc1ccc(C(=O)CSCc2ccncc2)cc1
2. O=Cc1c(Cl)nc2ccccc2c1-c1ccc(F)cc1
3. CC(C)c1ccc(-n2nc(Cl)cc2-c2ccc(S(C)(=O)=O)cc2)cc1
4. CC(Cc1ccc(Oc2cc(N3CCN(Cc4ccccc4)CC3)nc(NCc3ccccc3)n2)cc1)(Oc1ccccc1)C(=O)O (stereo not given)
5. CS(=O)(=O)c1ccc(-c2cc(/C=C/CO)nn2C2CCCCC2)cc1
6. Cc1cc(-n2ccnc2)c2cccc(OCc3c(Cl)ccc(S(=O)(=O)N4CCC[C@H]4C(=O)NCCCN(C)C)c3Cl)c2n1
7. COC(=O)c1ccc(C(=O)NNC(=O)c2ccc(C(=O)OC)cc2)cc1

["64 to 65 °C", "168 to 170 °C", "146 to 148 °C", "104 to 106 °C", "121 °C", "80 °C", "287 to 290 °C"]
